Biological target: OsWOX13 (Oryza sativa, UniProt Q5QMM3 1-267)
Sequence: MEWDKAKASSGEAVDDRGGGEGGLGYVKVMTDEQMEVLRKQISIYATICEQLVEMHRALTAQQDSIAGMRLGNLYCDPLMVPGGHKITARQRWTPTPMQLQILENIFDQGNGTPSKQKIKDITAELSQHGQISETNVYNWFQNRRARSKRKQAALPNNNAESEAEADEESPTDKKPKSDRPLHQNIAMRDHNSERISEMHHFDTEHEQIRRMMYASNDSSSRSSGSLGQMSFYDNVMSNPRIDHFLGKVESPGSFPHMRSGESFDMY
Experiment: protein-binding microarray (RPBM); PBS, 2% BSA, 51.3 ng/ul salmon testes DNA, 50 uM zinc acetate, 200 nM TF, 25 C, 1 h; high values mean tight binding
Conditions: protein: recombinant; tags: N-terminal polyhistidine and DsRed monomer fusion (pET32a); label: CyDye5-dUTP incorporated in the synthesized complementary strand; 3' TTTTT single-stranded linker to array surface; dsDNA, one strand shown
In all, about 35,000 sequences were measured (“fluorescence intensity (a.u.)”: median about 10,000, highest 2% from about 52,000 on). This excerpt belongs to a sample that is enriched for the highest values.
Test Readout: binding signal

# example entries with known answers
>  <Polymer Sequence>
ATTGATTGACCGAGCGCACTACTCTTTATCTTTTCGATTGCGGAGTCACCTAGTGCAG

>  <Test Readout>
binding signal

>  <Result>
64900 fluorescence intensity (a.u.)

$$$$
>  <Polymer Sequence>
GTTGCAGATTGAGAGCCAAAGACATTATCTTGATTCTATCCGGAGTCACCTAGTGCAG

>  <Test Readout>
binding signal

>  <Result>
13100 fluorescence intensity (a.u.)

$$$$
>  <Polymer Sequence>
AGCTAAATTGATTCGTGCACCCAAGTCAACAAGAAAACGTCGGAGTCACCTAGTGCAG

>  <Test Readout>
binding signal

>  <Result>
38900 fluorescence intensity (a.u.)

$$$$
>  <Polymer Sequence>
ATTTGCTAATGACGGATTAATTAGATTTAATAAATTCATCCGGAGTCACCTAGTGCAG

>  <Test Readout>
binding signal

>  <Result>
39700 fluorescence intensity (a.u.)

$$$$
>  <Polymer Sequence>
TGTTAGATGATAAAACATGATTAATATTTTATGCGTGACTCGGAGTCACCTAGTGCAG

>  <Test Readout>
binding signal

>  <Result>
8120 fluorescence intensity (a.u.)

$$$$

Measured binding signal, TGGAACATTGTTGATTGGCGAGCTGGCACGCATGCTAGGTCGGAGTCACCTAGTGCAG : 18600 fluorescence intensity (a.u.)

Measured binding signal, TCTTAATTTCTATCAATAATTTAATTTAGCATATAATAACCGGAGTCACCTAGTGCAG : 31300 fluorescence intensity (a.u.)

Measured binding signal, ACATGTTAATTTTAACATTGACTAATAGTAAGTAGTGAGCCGGAGTCACCTAGTGCAG : 25000 fluorescence intensity (a.u.)

Measured binding signal, TGTTTTGATTGTTTCTTATTACTCCCTCCGATTATAAATACGGAGTCACCTAGTGCAG : 25500 fluorescence intensity (a.u.)

Measured binding signal, GAGCCTAATTAATTCGTGATTAGCCTAATGACGGATTAATCGGAGTCACCTAGTGCAG : 57400 fluorescence intensity (a.u.)

Measured binding signal, CTTGATTGACGACCATCTCGTGGTTACCAATTCCATCACCCGGAGTCACCTAGTGCAG : 60000 fluorescence intensity (a.u.)

FYI, the data here is from paper PMC7819943.
